Target of assay: T1, orthogonal hCD122 receptor (hoRb), hCD122 with H133D and Y134F (human, UniProt P14784 27-550); note: reference of the scale not given here
T1 sequence: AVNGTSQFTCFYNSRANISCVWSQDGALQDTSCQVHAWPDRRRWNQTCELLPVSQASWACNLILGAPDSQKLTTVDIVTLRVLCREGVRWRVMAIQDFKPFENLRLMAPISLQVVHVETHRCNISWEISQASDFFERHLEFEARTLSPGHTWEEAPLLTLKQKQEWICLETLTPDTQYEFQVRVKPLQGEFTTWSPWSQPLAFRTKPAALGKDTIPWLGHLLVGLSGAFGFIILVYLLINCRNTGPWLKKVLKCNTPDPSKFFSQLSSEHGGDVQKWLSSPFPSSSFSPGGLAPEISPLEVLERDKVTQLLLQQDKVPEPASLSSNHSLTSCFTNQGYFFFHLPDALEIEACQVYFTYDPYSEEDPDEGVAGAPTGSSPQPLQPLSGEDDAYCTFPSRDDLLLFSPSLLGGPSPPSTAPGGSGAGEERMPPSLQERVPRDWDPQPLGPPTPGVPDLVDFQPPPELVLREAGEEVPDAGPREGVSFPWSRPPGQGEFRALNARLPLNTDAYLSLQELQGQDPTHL
Experimental details: cell-based or functional assay
For each of the binders below, state its Relative Proliferation Fold Change NKL 1:10.
Units required after the number.

Binder | Result
V91K, SQVLKA (ligand) APTSSSTKKTQLQLSQLLVLLKAILNGINNYKNPKLTRMLTFKFYMPKKATELKHLQCLEEELKPLEEVLNLAQSKNFHLRPRDLISNINKIVLELKGSETTFMCEYADETATIVEFLNRWITFCQSIISTLT | 0.63 fold
L80F, SQVLKA (ligand) APTSSSTKKTQLQLSQLLVLLKAILNGINNYKNPKLTRMLTFKFYMPKKATELKHLQCLEEELKPLEEVLNLAQSKNFHFRPRDLISNINVIVLELKGSETTFMCEYADETATIVEFLNRWITFCQSIISTLT | 4.14 fold
ΔD20, SQV_KA (ligand) APTSSSTKKTQLQLSQLLVLKAILNGINNYKNPKLTRMLTFKFYMPKKATELKHLQCLEEELKPLEEVLNLAQSKNFHLRPRDLISNINVIVLELKGSETTFMCEYADETATIVEFLNRWITFCQSIISTLT | 0.59 fold
Q126H, SQVLKA (ligand) APTSSSTKKTQLQLSQLLVLLKAILNGINNYKNPKLTRMLTFKFYMPKKATELKHLQCLEEELKPLEEVLNLAQSKNFHLRPRDLISNINVIVLELKGSETTFMCEYADETATIVEFLNRWITFCHSIISTLT | 1.92 fold
T51I, SQVLKA (ligand) APTSSSTKKTQLQLSQLLVLLKAILNGINNYKNPKLTRMLTFKFYMPKKAIELKHLQCLEEELKPLEEVLNLAQSKNFHLRPRDLISNINVIVLELKGSETTFMCEYADETATIVEFLNRWITFCQSIISTLT | 2.64 fold
M39V, SQVLKA (ligand) APTSSSTKKTQLQLSQLLVLLKAILNGINNYKNPKLTRVLTFKFYMPKKATELKHLQCLEEELKPLEEVLNLAQSKNFHLRPRDLISNINVIVLELKGSETTFMCEYADETATIVEFLNRWITFCQSIISTLT | 1.85 fold

Sample SQVLKQ (ligand) APTSSSTKKTQLQLSQLLVLLKQILNGINNYKNPKLTRMLTFKFYMPKKATELKHLQCLEEELKPLEEVLNLAQSKNFHLRPRDLISNINVIVLELKGSETTFMCEYADETATIVEFLNRWITFCQSIISTLT — what was its Relative Proliferation Fold Change NKL 1:10?
4.61 fold
